test target: Solute carrier family 2, facilitated glucose transporter member 1 (Homo sapiens)
protocol description: ST_JUDE_LEISH: Cytotoxicity at 2uM final concentration against transgenic Leishmania Mexicana promastigotes LmGLUT1 that are glucose transport deficient and complemented with the human glucose transporter GLUT1. Activity is measured by DNA content using SYBR green in vitro
Format: functional
Reported inhibition by item:

[[record]]
molecule = "CC[C@H]1CN2CC[C@H]1C[C@@H]2[C@@H](O)c1cc(Cl)nc2ccc(OC)cc12"
readout_type = "inhibition"
value_measured = "11%"

[[record]]
molecule = "Cc1ccc(CC(C)NCC(O)c2cccc(Br)c2)cc1 (stereo not given)"
readout_type = "inhibition"
value_measured = "1.02%"

[[record]]
molecule = "Cc1nc(C)c(-c2ccc(Oc3ccc(OC(F)(F)F)cc3)cc2)c(OC(=O)N(CCNC(C)C)C(C)C)c1Br"
readout_type = "inhibition"
value_measured = "5.43%"

[[record]]
molecule = "CCc1ccc(CC(C)NCC(O)c2ccccc2)cc1 (stereo not given)"
readout_type = "inhibition"
value_measured = "1.06%"

[[record]]
molecule = "COc1ccc(OC)c(CNCC(O)c2cc(C(F)(F)F)cc(C(F)(F)F)c2)c1 (stereo not given)"
readout_type = "inhibition"
value_measured = "5.31%"


Report inhibition for CCN(CC)CCN1C(=O)C(O)(c2ccccc2Cl)c2c1cc(C#N)cc2C(F)(F)F (stereo not given) tested on Solute carrier family 2, facilitated glucose transporter member 1 (Homo sapiens).
2.9%

Report inhibition for Cc1cc(NC(=O)[C@H](CC(C)C)Nc2ccc(C#N)c3ccccc23)ccc1F tested on Solute carrier family 2, facilitated glucose transporter member 1 (Homo sapiens).
0.56%
